Assign target mRNA knockdown to each entry below.
details: siRNA; also: test system not given here
HELM strings list units from the 5' end as sugar, base in round brackets, then linkage (d deoxyribose, r ribose, m 2'-O-methyl, p phosphodiester). Strings are as the collection lists them, not checked against the first reports. ss, as = sense and antisense strand; [fl2r] = 2'-fluoro
Numeric only. Scale: %

INPUT: Need target mRNA knockdown of `RNA1{r(U)p.r(U)p.r(U)p.[fl2r](C)p.[fl2r](C)p.[fl2r](C)p.[fl2r](C)p.[fl2r](C)p.r(A)p.r(G)p.r(G)p.r(U)p.r(A)p.r(A)p.[fl2r](C)p.r(G)p.r(A)p.r(U)p.r(U)p.r(T)p.r(T)}|RNA2{r(A)p.r(A)p.r(U)p.[fl2r](C)p.r(G)p.r(U)p.r(U)p.[fl2r](A)p.[fl2r](C)p.r(C)p.r(U)p.r(G)p.r(G)p.r(G)p.r(G)p.r(G)p.r(A)p.r(A)p.r(A)p.r(T)p.r(T)}$$$RNA1{StrandType:ss}|RNA2{StrandType:as}$` , thanks.
OUTPUT: 68

INPUT: Need target mRNA knockdown of `RNA1{[fl2r](U)p.r(U)p.[fl2r](A)p.r(C)p.[fl2r](C)p.r(C)p.[fl2r](C)p.r(G)p.[fl2r](A)p.r(U)p.[fl2r](U)p.r(C)p.[fl2r](A)p.r(G)p.[fl2r](C)p.r(C)p.[fl2r](U)p.r(C)p.[fl2r](U)p.r(T)p.r(T)}|RNA2{r(A)p.r(G)p.r(A)p.r(G)p.r(G)p.r(C)p.r(U)p.r(G)p.r(A)p.r(A)p.r(U)p.r(C)p.r(G)p.r(G)p.r(G)p.r(G)p.r(U)p.r(A)p.r(A)p.r(T)p.r(T)}$$$RNA1{StrandType:ss}|RNA2{StrandType:as}$` , thanks.
OUTPUT: 67

---

Assign target mRNA knockdown to each entry below.
conditions: siRNA
HELM strings list units from the 5' end as sugar, base in round brackets, then linkage (d deoxyribose, r ribose, m 2'-O-methyl, p phosphodiester). Strings are as the collection lists them, not checked against the first reports. ss, as = sense and antisense strand; [lna] = locked nucleic acid (LNA); [fl2r] = 2'-fluoro
Numeric only. Scale: %

INPUT: Need target mRNA knockdown of `RNA1{r(C)p.r(U)p.r(U)p.r(A)p.r(C)p.r(G)p.r(C)p.r(U)p.r(G)p.r(A)p.r(G)p.r(U)p.r(A)p.r(C)p.r(U)p.r(U)p.r(C)p.r(G)p.r(A)p.r(T)p.r(T)}|RNA2{r(T)p.r(C)p.r(G)p.r(A)p.[lna](A)p.r(G)p.r(U)p.r(A)p.r(C)p.r(U)p.r(C)p.r(A)p.r(G)p.r(C)p.r(G)p.r(U)p.r(A)p.r(A)p.r(G)p.[lna](T)p.[lna](T)}$$$RNA1{StrandType:ss}|RNA2{StrandType:as}$` , thanks.
OUTPUT: 88

INPUT: Need target mRNA knockdown of `RNA1{r(A)p.r(G)p.r(C)p.r(C)p.[fl2r](C)p.r(A)p.r(G)p.r(A)p.[fl2r](U)p.r(A)p.r(G)p.r(C)p.r(U)p.r(C)p.r(U)p.r(U)p.[fl2r](C)p.r(A)p.r(G)p.r(T)p.r(T)}|RNA2{r(C)p.[fl2r](U)p.r(G)p.r(A)p.r(A)p.r(G)p.r(A)p.r(G)p.r(C)p.[fl2r](U)p.r(A)p.r(U)p.r(C)p.[fl2r](U)p.r(G)p.r(G)p.r(G)p.r(C)p.r(U)p.r(T)p.r(T)}$$$RNA1{StrandType:ss}|RNA2{StrandType:as}$` , thanks.
OUTPUT: 61

---

settings: siRNA
HELM strings list units from the 5' end as sugar, base in round brackets, then linkage (d deoxyribose, r ribose, m 2'-O-methyl, p phosphodiester). Strings are as the collection lists them, not checked against the first reports. ss, as = sense and antisense strand; [s4r] = 4'-thioribose; [fl2r] = 2'-fluoro
Assign target mRNA knockdown to each entry below.
Numeric only. Scale: %

INPUT: Need target mRNA knockdown of `RNA1{[fl2r](C)p.r(G)p.[fl2r](A)p.r(A)p.[fl2r](A)p.r(G)p.[fl2r](U)p.r(G)p.[fl2r](U)p.r(A)p.[fl2r](U)p.r(C)p.[fl2r](C)p.r(G)p.[fl2r](A)p.r(A)p.[fl2r](G)p.r(A)p.[fl2r](C)p.r(T)p.r(T)}|RNA2{[fl2r](G)p.r(U)p.r(C)p.r(U)p.r(U)p.r(C)p.[fl2r](G)p.[fl2r](G)p.r(A)p.r(U)p.r(A)p.r(C)p.r(A)p.r(C)p.r(U)p.r(U)p.r(U)p.r(C)p.[fl2r](G)p.r(T)p.r(T)}$$$RNA1{StrandType:ss}|RNA2{StrandType:as}$` , thanks.
OUTPUT: 41

INPUT: Need target mRNA knockdown of `RNA1{r(A)p.r(A)p.r(A)p.r(C)p.r(A)p.r(U)p.r(G)p.r(C)p.r(A)p.r(G)p.r(A)p.r(A)p.r(A)p.r(A)p.r(U)p.r(G)p.r(C)p.r(U)p.r(G)p.r(T)p.r(T)}|RNA2{r(C)p.r(A)p.r(G)p.r(C)p.r(A)p.r(U)p.r(U)p.r(U)p.r(U)p.r(C)p.r(U)p.r(G)p.r(C)p.r(A)p.r(U)p.r(G)p.r(U)p.[s4r](U)p.[s4r](U)p.r(T)p.r(T)}$$$RNA1{StrandType:ss}|RNA2{StrandType:as}$` , thanks.
OUTPUT: 57.2

---

settings: siRNA
HELM strings list units from the 5' end as sugar, base in round brackets, then linkage (d deoxyribose, r ribose, m 2'-O-methyl, p phosphodiester). Strings are as the collection lists them, not checked against the first reports. ss, as = sense and antisense strand; [fl2r] = 2'-fluoro
Measured Property: target mRNA knockdown

INPUT: Need target mRNA knockdown of `RNA1{r(G)p.r(A)p.r(C)p.[fl2r](C)p.r(A)p.r(C)p.r(G)p.r(A)p.r(A)p.r(G)p.r(A)p.r(G)p.r(U)p.[fl2r](U)p.r(A)p.r(A)p.r(C)p.r(C)p.r(C)p.r(T)p.r(T)}|RNA2{r(G)p.r(G)p.r(G)p.r(U)p.[fl2r](U)p.r(A)p.r(A)p.r(C)p.r(U)p.r(C)p.r(U)p.r(U)p.r(C)p.r(G)p.[fl2r](U)p.r(G)p.r(G)p.r(U)p.r(C)p.r(T)p.r(T)}$$$RNA1{StrandType:ss}|RNA2{StrandType:as}$` , thanks.
OUTPUT: 85%

INPUT: Need target mRNA knockdown of `RNA1{d(G)p.d(C)p.d(A)p.d(G)p.d(C)p.d(A)p.d(C)p.d(G)p.d(A)p.d(C)p.d(U)p.d(U)p.d(C)p.d(U)p.d(U)p.d(C)p.d(A)p.d(A)p.d(G)p.r(T)p.r(T)}|RNA2{r(C)p.r(U)p.r(U)p.r(G)p.r(A)p.r(A)p.r(G)p.r(A)p.r(A)p.r(G)p.r(U)p.r(C)p.r(G)p.r(U)p.r(G)p.r(C)p.r(U)p.r(G)p.r(C)p.r(T)p.r(T)}$$$RNA1{StrandType:ss}|RNA2{StrandType:as}$` , thanks.
OUTPUT: 38%

INPUT: Need target mRNA knockdown of `RNA1{r(C)p.r(G)p.r(G)p.r(A)p.r(U)p.r(C)p.m(U)p.r(A)p.m(C)p.r(A)p.r(C)p.r(C)p.r(U)p.r(U)p.m(C)p.r(A)p.r(A)p.r(G)p.r(A)p.r(T)p.r(T)}|RNA2{r(U)p.r(C)p.r(U)p.m(U)p.r(G)p.r(A)p.r(A)p.r(G)p.r(G)p.m(U)p.r(G)p.m(U)p.r(A)p.r(G)p.r(A)p.r(U)p.r(C)p.r(C)p.r(G)p.r(T)p.r(T)}$$$RNA1{StrandType:ss}|RNA2{StrandType:as}$` , thanks.
OUTPUT: 68%

---

details: siRNA
HELM strings list units from the 5' end as sugar, base in round brackets, then linkage (d deoxyribose, r ribose, m 2'-O-methyl, p phosphodiester). Strings are as the collection lists them, not checked against the first reports. ss, as = sense and antisense strand; [lna] = locked nucleic acid (LNA)
Assign target mRNA knockdown to each entry below.
Numeric only. Scale: %

INPUT: Need target mRNA knockdown of `RNA1{[lna](G)p.r(G)p.r(C)p.r(C)p.r(U)p.r(U)p.r(U)p.r(C)p.r(A)p.r(C)p.r(U)p.r(A)p.r(C)p.r(U)p.r(C)p.r(C)p.r(U)p.r(A)p.r(C)p.r(G)p.r(A)}|RNA2{r(G)p.r(U)p.r(A)p.r(G)p.r(G)p.r(A)p.r(G)p.r(U)p.r(A)p.r(G)p.r(U)p.r(G)p.r(A)p.r(A)p.r(A)p.r(G)p.r(G)p.r(C)p.r(C)p.r(A)p.r(G)}$$$RNA1{StrandType:ss}|RNA2{StrandType:as}$` , thanks.
OUTPUT: 86

INPUT: Need target mRNA knockdown of `RNA1{[lna](A)p.r(A)p.r(A)p.r(C)p.r(A)p.r(U)p.r(G)p.r(C)p.r(A)p.r(G)p.r(A)p.r(A)p.r(A)p.r(A)p.r(U)p.r(G)p.r(C)p.r(U)p.r(G)p.[lna](T)p.[lna](T)}|RNA2{r(C)p.r(A)p.r(G)p.r(C)p.r(A)p.r(U)p.r(U)p.r(U)p.r(U)p.r(C)p.r(U)p.r(G)p.r(C)p.r(A)p.r(U)p.r(G)p.r(U)p.r(U)p.r(U)p.r(T)p.r(T)}$$$RNA1{StrandType:ss}|RNA2{StrandType:as}$` , thanks.
OUTPUT: 82

INPUT: Need target mRNA knockdown of `RNA1{r(G)p.r(A)p.r(U)p.r(U)p.r(C)p.m(C)p.r(A)p.r(A)p.r(A)p.r(C)p.r(C)p.r(C)p.r(C)p.r(A)p.r(C)p.m(U)p.r(A)p.r(U)p.r(C)p.r(T)p.r(T)}|RNA2{r(G)p.r(A)p.r(U)p.r(A)p.r(G)p.r(U)p.r(G)p.r(G)p.r(G)p.r(G)p.r(U)p.r(U)p.r(U)p.r(G)p.r(G)p.r(A)p.r(A)p.r(U)p.r(C)p.r(T)p.r(T)}$$$RNA1{StrandType:ss}|RNA2{StrandType:as}$` , thanks.
OUTPUT: 67

Each recorded value in this set is attributed to the OligoGym collection.
